Sourced from patent US6720142B1

test system: E. coli DH5α-E containing multiply mutated ampC; experiment: MIC of population of E. coli host cells containing multiply mutated (DNA-shuffled) ampC; assay type: cell-based; details: Escherichia coli; lowest drug concentration that completely inhibited growth; overnight at 37° C., MH-I broth, 48-well plates, shuffled ampC library in DH5α-E
This listing pairs compounds with measured MIC.
Express the result in µg/mL but write the number alone.

# count of solved cases: 3
>>> measurednumber("CO/N=C(\\C(=O)N[C@@H]1C(=O)N2C(C(=O)O)=C(COC(C)=O)CS[C@H]12)c1csc(N)n1")
8
>>> measurednumber("C[C@H]1[C@H](NC(=O)/C(=N\\OC(C)(C)C(=O)O)c2csc(N)n2)C(=O)N1S(=O)(=O)O")
16
>>> measurednumber("CO/N=C(\\C(=O)N[C@@H]1C(=O)N2C(C(=O)[O-])=C(C[N+]3(C)CCCC3)CS[C@H]12)c1csc(N)n1 [Cefepime, cefepime]")
1

Next up:
# query: MIC of entry "C[C@@H](O)[C@H]1C(=O)N2C(C(=O)O)=C(SCCN=CN)C[C@H]12" 0.25
